IC50 overview
TARGET_OR_TEST_SYSTEM: PD-1/PD-L1 (Homo sapiens (Human))
PROTOCOL: PD-1/PD-L1 biochemical protein-protein interaction assay (ALPHA)
CONDITION_LABEL: 0.3 nM His tagged PD-L1, 2.5 nM biotinylated Fc-PD-1, 60 minutes at 25° C., read-out: IC50 PD-L1-PD1
Return type: number; implicit unit nM.

COMPOUND	MEASURE_UNIT	IC50
COc1nc(-c2cccc(-c3cccc(-c4cnc(CN(C)C[C@H]5C[C@H](O)C5)c(OC)n4)c3Cl)c2Cl)cnc1CNC[C@@H]1CCC(=O)N1	nM	0.344
CNc1nc(-c2cccc(-c3cccc(-c4cnc(CN5CC6(C5)CN(C(C)=O)C6)c(OC)n4)c3Cl)c2Cl)cnc1CN1CC2(C1)CN(C(C)=O)C2	nM	0.1
COc1nc(-c2cccc(-c3cccc(-c4cnc(CNC[C@@H]5CCC(=O)N5)c(OC)n4)c3F)c2Cl)ccc1CNC[C@@H]1CCC(=O)N1	nM	0.079
COc1nc(-c2cccc(-c3cccc(-c4cnc(CN[C@H]5C[C@@H](NC(C)=O)C5)c(OC)n4)c3Cl)c2Cl)cnc1CNC[C@@H]1CCC(=O)N1	nM	0.074
COCC(NCc1ncc(-c2cccc(-c3cccc(-c4cnc(CNC[C@@H]5CCC(=O)N5)c(OC)n4)c3Cl)c2Cl)nc1OC)C(F)(F)F (stereo partly drawn)	nM	2.67

// below: IC50 requested for another compound
Documented IC50 of "CCn1cc(CN2CC3(C2)CN(C(C)=O)C3)c2ncc(-c3cccc(-c4cccc(-c5cnc(CN6CC7(C6)CN(C(C)=O)C7)c(OC)n5)c4Cl)c3Cl)nc21" : 0.064

###

TARGET_OR_TEST_SYSTEM: PD-1/PD-L1 (Homo sapiens (Human), UniProt Q9NZQ7)
Sequence (Q9NZQ7 19-238): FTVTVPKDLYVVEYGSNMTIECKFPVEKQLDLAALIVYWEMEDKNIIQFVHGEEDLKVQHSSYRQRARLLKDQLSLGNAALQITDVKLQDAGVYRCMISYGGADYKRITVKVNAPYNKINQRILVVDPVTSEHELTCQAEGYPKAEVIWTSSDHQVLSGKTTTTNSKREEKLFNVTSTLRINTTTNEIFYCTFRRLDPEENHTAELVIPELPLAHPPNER
PROTOCOL: PD-1/PD-L1 biochemical protein-protein interaction assay (ALPHA)
CONDITION_LABEL: 0.3 nM His tagged PD-L1, 2.5 nM biotinylated Fc-PD-1, 60 minutes at 25° C., read-out: IC50 PD-L1-PD1
IC50 overview
Please make sure the unit comes right after the number.

SMILES_NOTATION	TARGET_OR_TEST_SYSTEM	IC50
COc1nc(-c2cccc(-c3cccc(-c4cnc(CNC(C)(C)CNC(C)=O)c(OC)n4)c3Cl)c2Cl)cnc1CNC[C@@H]1CCC(=O)N1	PD-1/PD-L1 (Homo sapiens (Human), UniProt Q9NZQ7)	0.459 nM
COc1nc(-c2cccc(-c3cccc(-c4cnc(CN[C@@H](CO)C(N)=O)c(OC)n4)c3Cl)c2Cl)cnc1CNC[C@@H]1CCC(=O)N1	PD-1/PD-L1 (Homo sapiens (Human), UniProt Q9NZQ7)	0.29 nM
COc1nc(-c2cccc(-c3cccc(-c4cnc(CNC5CC(F)(F)C5)c(OC)n4)c3Cl)c2Cl)cnc1CNC[C@@H]1CCC(=O)N1	PD-1/PD-L1 (Homo sapiens (Human), UniProt Q9NZQ7)	0.816 nM
COc1nc(-c2cccc(-c3cccc(-c4cnc(CN(C)CCO)c(OC)n4)c3Cl)c2Cl)cnc1CNC[C@@H]1CCC(=O)N1	PD-1/PD-L1 (Homo sapiens (Human), UniProt Q9NZQ7)	0.12 nM
COc1nc(-c2cccc(-c3cccc(-c4cnc(CNC[C@H]5C[C@H](OC)C5)c(OC)n4)c3Cl)c2Cl)cnc1CNC[C@@H]1CCC(=O)N1	PD-1/PD-L1 (Homo sapiens (Human), UniProt Q9NZQ7)	0.43 nM

Documented IC50 of "COc1nc(-c2cccc(-c3cccc(-c4cnc(CNC[C@@H]5CCC(=O)N5)c(OC)n4)c3Cl)c2Cl)cnc1CNCC1CNC1" : 0.08 nM

###

IC50 overview
TARGET_OR_TEST_SYSTEM: PD-1/PD-L1 (Homo sapiens (Human), UniProt Q9NZQ7)
PROTOCOL: PD-1/PD-L1 biochemical protein-protein interaction assay (ALPHA)
CONDITION_LABEL: 0.3 nM His tagged PD-L1, 2.5 nM biotinylated Fc-PD-1, 60 minutes at 25° C., read-out: IC50 PD-L1-PD1
Return type: number; implicit unit nM.

As a guide, the following entries are already answered.
MOLECULE	MEASURE_UNIT	IC50
COCCNCc1ncc(-c2cccc(-c3cccc(-c4cnc(CNC[C@@H]5CCC(=O)N5)c(OC)n4)c3Cl)c2Cl)nc1OC	nM	0.118
COc1nc(-c2cccc(-c3cccc(-c4cnc(CN5CC[C@@H](C)[C@@H](O)C5)c(OC)n4)c3Cl)c2Cl)cnc1CNC[C@@H]1CCC(=O)N1	nM	0.229
COc1nc(-c2cccc(-c3cccc(-c4cnc(CNC(C)(C)CO)c(OC)n4)c3Cl)c2Cl)cnc1CNC[C@@H]1CCC(=O)N1	nM	0.098

// below: IC50 requested for another molecule
Result for "COc1nc(-c2cccc(-c3cccc(-c4cnc(CN5CC6(C5)CN(C(C)=O)C6)c(OC)n4)c3F)c2Cl)ccc1CN1CC2(C1)CN(C(C)=O)C2" , tested on PD-1/PD-L1 (Homo sapiens (Human), UniProt Q9NZQ7), IC50: 0.064

###

log10 of IC50 overview
TARGET_OR_TEST_SYSTEM: PD-1/PD-L1 (Homo sapiens (Human))
PROTOCOL: PD-1/PD-L1 biochemical protein-protein interaction assay (ALPHA)
CONDITION_LABEL: 0.3 nM His tagged PD-L1, 2.5 nM biotinylated Fc-PD-1, 60 minutes at 25° C., read-out: IC50 PD-L1-PD1
A difference of one corresponds to tenfold IC50; all values are log10 with IC50 in nM.

Documented log10 of IC50 of CNc1nc(-c2cccc(-c3cccc(-c4cnc(CN5CC6(CNC(=O)C6)C5)c(OC)n4)c3Cl)c2Cl)cnc1CN1CC2(CNC(=O)C2)C1 [compound 61] : -1.15

Documented log10 of IC50 of CNC(=O)[C@@H]1CCCN1Cc1ncc(-c2cccc(-c3cccc(-c4cnc(CNC[C@@H]5CCC(=O)N5)c(OC)n4)c3Cl)c2Cl)nc1OC [compound 19] : -0.70

Documented log10 of IC50 of COc1nc(-c2cccc(-c3cccc(-c4cnc(CN5CC[C@H](C(N)=O)C5)c(OC)n4)c3Cl)c2Cl)cnc1CNC[C@@H]1CCC(=O)N1 [compound 517] : -0.97

Documented log10 of IC50 of COc1nc(-c2cccc(-c3cccc(-c4cnc(CN5CCC(C6CCOC6)C5)c(OC)n4)c3Cl)c2Cl)cnc1CNC[C@@H]1CCC(=O)N1 (stereo partly drawn) [compound 411] : -0.49

Documented log10 of IC50 of O=C1CCC2(CN(Cc3ncc(-c4cccc(-c5cccc(-c6cnc(CN7CC8(CCC(=O)N8)C7)c(Cl)n6)c5Cl)c4Cl)nc3Cl)C2)N1 [compound 110] : -0.49

Documented log10 of IC50 of COc1nc(-c2cccc(-c3cccc(-c4cnc(CN5C[C@@H](N)CCC5=O)c(OC)n4)c3Cl)c2Cl)cnc1CNC[C@@H]1CCC(=O)N1 [compound 36] : 0.11

Documented log10 of IC50 of COc1nc(-c2cccc(-c3cccc(-c4cnc(CNC5CCN(C(N)=O)CC5)c(OC)n4)c3Cl)c2Cl)cnc1CNC1CCN(C(N)=O)CC1 [compound 466] : -1.14

Documented log10 of IC50 of COc1nc(-c2cccc(-c3cccc(-c4cnc5c(CN6CCC7(CCC(=O)N7)C6)cn(C)c5n4)c3Cl)c2Cl)cnc1CNC[C@H]1CCC(=O)N1 (stereo partly drawn) [compound 602] : -0.84

Documented log10 of IC50 of CNC(=O)C1CN(Cc2ncc(-c3cccc(-c4cccc(-c5cnc(CN6CC(C(=O)NC)C6)c(OC)n5)c4Cl)c3Cl)nc2OC)C1 [compound 555] : -0.46

Documented log10 of IC50 of COc1nc(-c2cccc(-c3cccc(-c4cnc(CN5CC(O)C5)c(OC)n4)c3Br)c2Br)cnc1CN1CC(O)C1 [compound 112] : -1.12

Documented log10 of IC50 of COc1nc(-c2cccc(-c3cccc(-c4cnc(CN[C@H]5CC[C@@H](C#N)C5)c(OC)n4)c3Cl)c2Cl)cnc1CNC[C@@H]1CCC(=O)N1 [compound 458] : -1.06

Documented log10 of IC50 of COc1nc(-c2cccc(-c3cccc(-c4cnc(CNC[C@@H]5CCC(=O)N5)c(OC)n4)c3Cl)c2Cl)cnc1CNCCc1cncnc1 [compound 520] : -1.14

Documented log10 of IC50 of COc1nc(-c2cccc(-c3cccc(-c4cnc(CNCCc5cnccn5)c(OC)n4)c3Cl)c2Cl)cnc1CNCCc1cnccn1 [compound 518] : -0.84

Documented log10 of IC50 of COc1nc(-c2cccc(-c3cccc(-c4cnc(CNC5CCC6(CNC(=O)C6)C5)c(OC)n4)c3Cl)c2Cl)cnc1CNC[C@H]1CCC(=O)N1 (stereo partly drawn) [compound 202] : -0.84

Documented log10 of IC50 of CNc1nc(-c2cccc(-c3cccc(-c4cnc(CN5CC(OC)C5)c(NC)n4)c3Cl)c2Cl)cnc1CN1CC(OC)C1 [compound 75] : -0.06

Documented log10 of IC50 of COc1nc(-c2cccc(-c3cccc(-c4cnc(CN5CCC([C@H](C)O)CC5)c(OC)n4)c3Cl)c2Cl)cnc1CNC[C@@H]1CCC(=O)N1 [compound 457] : -0.76

Documented log10 of IC50 of COc1nc(-c2cccc(-c3cccc(-c4cnc(CNC[C@@H]5CCC(=O)N5)c(OC)n4)c3Cl)c2Cl)cnc1CNCC1CCS(=O)(=O)N1 (stereo partly drawn) [compound 306] : -0.61

Documented log10 of IC50 of COc1nc(-c2cccc(-c3cccc(-c4cnc(CN[C@@H]5CCC[C@@H]5O)c(OC)n4)c3Cl)c2Cl)cnc1CN[C@@H]1CCC[C@@H]1O [compound 383] : -0.05

Documented log10 of IC50 of CNc1nc(-c2cccc(-c3cccc(-c4cnc(CNC[C@@H]5CCC(=O)N5)c(OC)n4)c3Cl)c2Cl)cnc1CN1CC2(C1)CN(C(C)=O)C2 [compound 488] : -1.19

Documented log10 of IC50 of COc1nc(-c2cccc(-c3cccc(-c4ccc(CNC[C@@H]5CCC(=O)N5)c(C#N)c4)c3Cl)c2Cl)cnc1CNC[C@@H]1CCC(=O)N1 [compound 152] : -1.14
